- procedure text: purified protein yield per well (BCA); higher = higher soluble expression
endpoint: purified protein yield per well
Report field: quantity (unit follows the number).

The sequence listed as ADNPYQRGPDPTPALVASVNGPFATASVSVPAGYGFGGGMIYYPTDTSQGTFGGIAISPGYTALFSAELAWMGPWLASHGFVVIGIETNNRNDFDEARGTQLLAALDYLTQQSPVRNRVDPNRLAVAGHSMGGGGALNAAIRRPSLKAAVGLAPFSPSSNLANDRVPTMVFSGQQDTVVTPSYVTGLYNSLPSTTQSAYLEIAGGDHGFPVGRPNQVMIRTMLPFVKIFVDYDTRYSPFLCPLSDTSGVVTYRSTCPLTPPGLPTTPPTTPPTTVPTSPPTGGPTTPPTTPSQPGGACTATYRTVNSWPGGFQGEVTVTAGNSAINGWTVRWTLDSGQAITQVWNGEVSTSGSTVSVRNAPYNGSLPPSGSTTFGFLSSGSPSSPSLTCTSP [DP059] has a reported purified protein yield per well of 255 µg

* * *

Hi there, I'd appreciate the recorded PET hydrolysis for every entry that follows.
- procedure text: PET hydrolysis, aromatic products released after 48 h (umol product/mg enzyme); higher = more PET depolymerization activity
- measurement context: substrate: cryPow; 60 °C; pH 4.5

The sequence listed as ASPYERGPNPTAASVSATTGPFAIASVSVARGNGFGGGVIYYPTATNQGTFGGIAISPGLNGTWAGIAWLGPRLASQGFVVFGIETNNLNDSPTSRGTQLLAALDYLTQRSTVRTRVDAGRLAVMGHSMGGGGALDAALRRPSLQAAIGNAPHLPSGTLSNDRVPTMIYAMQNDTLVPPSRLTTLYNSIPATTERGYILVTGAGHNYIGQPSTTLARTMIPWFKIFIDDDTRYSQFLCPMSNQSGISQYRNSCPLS [ESM160] has a reported PET hydrolysis of < 3

The sequence listed as CAAGGPGASPGLQPTIASLSVDGAFKVMTYTDIPDVPEFGDATVYYPADTPTPIGGVAISPGWTEAQRHINWWGPRLASHGYAVLVLDTNDARRDQPEERAEALIAAVRILRGENDRAESPLQGRVDTGKMAIMGHSMGGGGTLIAANKYPDEIQAAIPFTPWQPDGDFGQITAPTLVMAGSADRVAGVADHAWPHYQSIPETTTKVFMEVDGGNHFIADTRRGTDLGTIGRYGIAWLKLYLDGDERYRSFIYGAEAEVDREKFSRYLTSP [TEP119] has a reported PET hydrolysis of < 3

The sequence listed as DEIGQAPTAGNITGNGSFTTTSESISSLVSGFGGGRVYYPTTAGKYPVVAISPGFTATWSSLSWIGPRLSSWGFVVVGIETNSIYDQPASRGSQLLAALNWAVNSSSSAVRARVDGSRRGVAGHSMGGGGTLEALAADTTGLVKAGVPIAPWNSDKTWNNVSEPVMIVGGQSDTVAPVASHSIPFYNTLAGPKGYVELTGASHFFPQSTNATLSRALVAWFKRWLNQDSRFTPYTCGFSGLAVSDFRSNAC [ESM090] has a reported PET hydrolysis of < 3

* * *

- procedure text: PET hydrolysis, aromatic products released after 48 h (umol product/mg enzyme); higher = more PET depolymerization activity
- measurement context: substrate: aFilm; 60 °C; pH 5.5
endpoint: PET hydrolysis

The sequence listed as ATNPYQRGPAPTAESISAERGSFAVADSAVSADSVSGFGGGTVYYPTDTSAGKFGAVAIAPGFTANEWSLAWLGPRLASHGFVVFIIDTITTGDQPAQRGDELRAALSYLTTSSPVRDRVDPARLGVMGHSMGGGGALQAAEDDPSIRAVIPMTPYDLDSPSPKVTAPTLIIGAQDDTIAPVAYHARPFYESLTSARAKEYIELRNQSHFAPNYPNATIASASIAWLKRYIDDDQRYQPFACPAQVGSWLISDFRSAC [DP034] has a reported PET hydrolysis of < 3

The sequence listed as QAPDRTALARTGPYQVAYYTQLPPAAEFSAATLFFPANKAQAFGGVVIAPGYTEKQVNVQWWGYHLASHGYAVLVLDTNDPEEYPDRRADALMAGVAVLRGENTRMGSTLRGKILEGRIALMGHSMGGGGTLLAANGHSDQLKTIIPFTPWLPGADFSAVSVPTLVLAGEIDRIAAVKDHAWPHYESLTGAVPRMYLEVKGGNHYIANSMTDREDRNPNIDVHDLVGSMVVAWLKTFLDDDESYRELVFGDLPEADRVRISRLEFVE [TEP006] has a reported PET hydrolysis of < 3

The sequence listed as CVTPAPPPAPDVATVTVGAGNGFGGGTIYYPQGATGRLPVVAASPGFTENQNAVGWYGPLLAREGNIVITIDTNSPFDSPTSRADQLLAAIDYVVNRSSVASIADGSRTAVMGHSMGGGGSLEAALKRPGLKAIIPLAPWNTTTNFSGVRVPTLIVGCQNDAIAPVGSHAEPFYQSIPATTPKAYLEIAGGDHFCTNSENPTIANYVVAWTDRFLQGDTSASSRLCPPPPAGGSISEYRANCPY [ESM050] has a reported PET hydrolysis of 22.5

* * *

- procedure text: purified protein yield per well (BCA); higher = higher soluble expression
endpoint: purified protein yield per well (µg)
Expressed in µg, but write only the number.

The sequence listed as ATPDHAATADHASAHHHAAYPVSQQTIPATDGTGFGAATLYAPQGTGRKTLGAIVVAPGLKGDQSDLAWLAQDLAGEGFIVLNMDTLGKYDLPNQRSYEMLAAAKYLATASSVKDQVDPADIGVVGYSLGGGGALQAAVEQHGLKAAVALMPYDFPAGTTDPYKPTESPTYPGITTPTLVITGQADTTAPAASMGKPAYDSIPASTPKQYLELRGADHLAARATTNGTVRDAVTNFLKVYLDGNSAYRKYVCPAPPTSAAISESASSCPR [ESM174] has a reported purified protein yield per well of 86.9

* * *

- procedure text: PET hydrolysis, aromatic products released after 48 h (umol product/mg enzyme); higher = more PET depolymerization activity
- measurement context: substrate: cryPow; 40 °C; pH 4.5
Hi there, I'd appreciate the recorded PET hydrolysis for every entry that follows.

The sequence listed as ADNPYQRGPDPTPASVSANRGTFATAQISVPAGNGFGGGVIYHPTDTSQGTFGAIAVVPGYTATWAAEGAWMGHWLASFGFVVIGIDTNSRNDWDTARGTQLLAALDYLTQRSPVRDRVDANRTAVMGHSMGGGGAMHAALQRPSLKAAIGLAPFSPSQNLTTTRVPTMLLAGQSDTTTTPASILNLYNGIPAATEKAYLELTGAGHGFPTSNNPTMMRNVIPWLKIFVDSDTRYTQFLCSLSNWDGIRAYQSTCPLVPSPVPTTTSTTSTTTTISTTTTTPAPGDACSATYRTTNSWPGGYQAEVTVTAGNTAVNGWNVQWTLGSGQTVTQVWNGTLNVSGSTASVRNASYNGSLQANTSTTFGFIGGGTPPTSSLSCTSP [ESM035] has a reported PET hydrolysis of < 3

The sequence listed as APGPSAPCSNCTRGPNPTEASLKSDRGPFTTARFSVSGFLKGFGDSTVYYPTNTTGRMGAIAVIPGYLSYESSIEWWGPRLASHGFVVMTMNTSTIYDQPDSRATQLSKALDYLIAQSNTSSSPIYNKIDSTRLGAIGWSMGGGGSLKLSTQRSLNAIIPQAPWYSGSNSFNTIKTPALILACSADTVAPVSVHASPFYNRIPGSTPKAFLEIYGGSHFCANSGYPNEDLLGLYGIAWMKRFIDFDNRYSQFLCGPNHEGDFAISDYRQNCPY [ESM096] has a reported PET hydrolysis of < 3

* * *

- procedure text: PET hydrolysis, aromatic products released after 48 h (umol product/mg enzyme); higher = more PET depolymerization activity
- measurement context: substrate: cryPow; 40 °C; pH 4.5
endpoint: PET hydrolysis

The sequence listed as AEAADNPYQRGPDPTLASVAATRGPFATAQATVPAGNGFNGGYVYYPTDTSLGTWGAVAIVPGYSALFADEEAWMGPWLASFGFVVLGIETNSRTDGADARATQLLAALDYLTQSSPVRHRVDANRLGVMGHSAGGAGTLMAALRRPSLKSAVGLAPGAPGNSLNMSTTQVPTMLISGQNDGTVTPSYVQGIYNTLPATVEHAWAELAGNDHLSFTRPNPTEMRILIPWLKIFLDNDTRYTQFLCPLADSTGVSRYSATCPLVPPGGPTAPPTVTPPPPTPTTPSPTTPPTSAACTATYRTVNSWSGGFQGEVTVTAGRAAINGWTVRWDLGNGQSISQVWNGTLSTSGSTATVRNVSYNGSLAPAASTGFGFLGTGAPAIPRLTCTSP [ESM037] has a reported PET hydrolysis of < 3

The sequence listed as VQIGPNPTKSSLEASRGPFSTSQFTVSRPSGYGAGTVYYPTNAGAKVGAIAIVPGFLSYQSSINWWGPRLASHGFVVITIDTYTTGDQPDSRSRQQLAALDQVIALGNTSSSPIYGKVDGSRTGVMGWSMGGGGSLISAKNRPSIKAAAPQAPWNTSTNFSSVTVPTLIFACQSDIVAPVISHAIPFYNSMTRNPKQYLEKTLGDHFCFNNANATVGLKGVAWMKRFVDGDTRYTSFACSNPNAFGFSDFRTARCS [ESM045] has a reported PET hydrolysis of 5

The sequence listed as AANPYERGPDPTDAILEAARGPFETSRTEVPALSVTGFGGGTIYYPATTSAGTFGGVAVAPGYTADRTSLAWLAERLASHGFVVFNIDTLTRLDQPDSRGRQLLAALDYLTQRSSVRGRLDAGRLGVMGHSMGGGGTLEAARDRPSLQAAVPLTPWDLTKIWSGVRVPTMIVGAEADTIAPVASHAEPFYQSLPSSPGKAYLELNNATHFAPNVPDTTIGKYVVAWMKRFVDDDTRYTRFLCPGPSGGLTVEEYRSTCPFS [TEP194] has a reported PET hydrolysis of 5

The sequence listed as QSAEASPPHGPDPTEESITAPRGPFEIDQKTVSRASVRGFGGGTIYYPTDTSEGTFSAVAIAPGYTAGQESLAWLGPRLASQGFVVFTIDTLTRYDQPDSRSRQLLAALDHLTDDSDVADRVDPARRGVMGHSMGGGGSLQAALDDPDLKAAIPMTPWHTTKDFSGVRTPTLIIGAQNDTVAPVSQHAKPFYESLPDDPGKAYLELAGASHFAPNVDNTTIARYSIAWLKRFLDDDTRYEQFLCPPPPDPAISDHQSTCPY [TEP105] has a reported PET hydrolysis of < 3

The sequence listed as ADNPYERGPNPTESLIEAARGPFATSQTTVSSLSVTGFGGGVIYYPTDTSQGTFGGIAISPGYTAAWSSLDWLGPRLASHGFVVIGIETNTRLDQPASRGDQLLAALDYLTQRSSVRSRVDATRLAVAGHSMGGGGSLEAAKDRTSLKAAIPLAPWNTDKTWPEVRTPTLIIGGESDTVAPVSSHSIPFYTSLTSAREKAYLELDNASHFFPQTSNTTMAKYMISWMKRYIDNDTRYEQFLCPGPSTGLLSGISDWRQTCPGS [TEP073] has a reported PET hydrolysis of < 3

The sequence listed as SNPAPDTGSGDGSSSQYQIGPDPTVSFLEASSGPFSVRTSNVSSLVSGFGGGTIHYPTGVNRPMAAIVVIPGFVSAESSIDWWGPKLASYGFVVMTIGTNSGFDQPPSRARQINNALDYLVAQNTNSRSPVNGMIDTNRLGAMGWSMGGGGTLRVAEEGRIKAAIPLAPWDTTSFRSNRTPTLIFACGSDSIAPVRTHASPFYNQIPTSTPKIFIEINRGNHYCANGGNSNNATLGRLGVAWMKRFLDEDRRYSQFLCGPRHTSDRNISESRDTCNF [ESM186] has a reported PET hydrolysis of < 3

The sequence listed as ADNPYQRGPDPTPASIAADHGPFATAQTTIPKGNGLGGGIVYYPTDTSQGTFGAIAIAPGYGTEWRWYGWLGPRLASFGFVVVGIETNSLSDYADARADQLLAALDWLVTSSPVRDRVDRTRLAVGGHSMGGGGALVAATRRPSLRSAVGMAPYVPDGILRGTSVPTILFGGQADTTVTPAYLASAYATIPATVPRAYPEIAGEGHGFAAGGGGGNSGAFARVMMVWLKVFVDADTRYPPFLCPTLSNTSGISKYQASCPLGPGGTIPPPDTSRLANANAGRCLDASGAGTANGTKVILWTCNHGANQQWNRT [ESM139] has a reported PET hydrolysis of < 3

The sequence listed as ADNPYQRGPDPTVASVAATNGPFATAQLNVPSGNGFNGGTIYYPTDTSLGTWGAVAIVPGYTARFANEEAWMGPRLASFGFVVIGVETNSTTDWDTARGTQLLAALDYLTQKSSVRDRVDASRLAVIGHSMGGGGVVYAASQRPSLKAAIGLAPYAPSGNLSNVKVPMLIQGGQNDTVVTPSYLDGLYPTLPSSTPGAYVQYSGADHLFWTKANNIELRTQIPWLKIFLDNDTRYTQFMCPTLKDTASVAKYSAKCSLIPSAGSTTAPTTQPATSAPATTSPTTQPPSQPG [TEP083] has a reported PET hydrolysis of < 3

The sequence listed as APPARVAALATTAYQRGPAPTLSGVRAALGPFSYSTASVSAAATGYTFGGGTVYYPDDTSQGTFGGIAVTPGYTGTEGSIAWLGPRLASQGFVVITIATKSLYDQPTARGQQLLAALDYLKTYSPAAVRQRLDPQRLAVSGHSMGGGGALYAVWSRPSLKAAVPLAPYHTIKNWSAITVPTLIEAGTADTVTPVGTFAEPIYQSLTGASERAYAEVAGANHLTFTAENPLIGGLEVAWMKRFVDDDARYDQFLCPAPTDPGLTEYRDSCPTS [TEP101] has a reported PET hydrolysis of < 3

The sequence listed as DQIGQAPTASNITGDGSFAVTSSAVSGQTGFGGGTVYYPTQTGTYPVVAIMPGFLELWDAIKWMGPRLASWGYVVVGVNPNSVFDLPDSRGSQLLAALNWAVGSAPSAVQSRADGTRRGVVGYSMGGGGTLEALSRDTSGKVLAGVAFSPWDTNQNWSTVRQPEFIVGAQNDTVAPPAQHAIPFYNSLAGPKTYVELAGADHLWPTSDNPTGSRAMVSWLKRWLNSDSRFTPFTCGFTGSAISASMSNAC [ESM047] has a reported PET hydrolysis of 20
